The following molecules are listed with their measured GI50 values.
Test system: EKVX
Assay: NCI tumour cell line growth inhibition, 48 h
Activity calls are given as the source filed them. Rule as the data show it: active = GI50 up to about 1.1 µM and inactive = higher.

Exercise: Item under review: COc1cc(C(O)c2ccc3c(c2)OCO3)cc(OC)c1OC (stereo not given) . Reported GI50?
Solution: > 100 µM (inactive)

Exercise: Item under review: COC1=CC(=O)C(Br)=CC1=O . Reported GI50?
Solution: 25.1 µM (inactive)

Exercise: Item under review: CC1=C(C(=O)Nc2cc(=O)n(C)c(=O)n2C)C(c2ccc([N+](=O)[O-])cc2)C(C(=O)Nc2cc(=O)n(C)c(=O)n2C)=C(C)N1 . Reported GI50?
Solution: > 100 µM (inactive)
